The following molecules are listed with their measured F. IND = fold induction (IND/REP) (B-galactosidase) values.
System: E. coli assay strain Km3
ASSAY_METHOD_TEXT: Liquid B-galactosidase assays of chlorsulfuron repressor hits (induction and repression)
ASSAY_CONTEXT: CsL4.2 hits; 20 ppb Cs vs no inducer
A bare number is all that is needed in reply.

Briefly, F. IND = fold induction (IND/REP) (B-galactosidase) measured for CsL4.2-30 (protein, Sulfonylurea responsive repressor) MARLDKSKVINSALELLNEVGIEGLTTRKLAQKLGVEQPTLYWHVKNKRALLDALAIEMHDRHQTHYLPLEGESWQDFLRNFAKSMRRALLSHRDGAKVALGTRWTEQQYETAENMLAFLTQQGFSLENALYATSAVRVFTLGAVLLDQEGQVANEERETPTPDSMPPLLRQAWELKVHQGAEPAFLFGLELIIAGLEKQLKRESGSHHHHHH : 10.8

New cases:
Recorded F. IND = fold induction (IND/REP) (B-galactosidase) (molecule CsL4.2-23 (protein, Sulfonylurea responsive repressor) MARLDKSKVINSALELLNEVGIEGLTTRKLAQKLGVEQPTLYWHVKNKRALLDALAIEMMDRHQTHYLPLEGESWQDYLRNFAKSMRCALLSHRDGAKVALGTRWTEQQYETAENMLAFLTQQGFSLENALYATSAVRVFTLGAVLLDQEQQVAKEERETPTPDRMPPLLRQAWELKVHQGAEPAFLFGLELIIAGLEKQLKRESGSHHHHHH ): 10.5

What the record says about CsL4.2-01 (protein, Sulfonylurea responsive repressor) MARLDKSKVINSALELLNEVGIEGLTTRKLAQKLGVEQPTLYWHVKNKRALLDALAIEMHDRHQTHYLPLEGESWQDYLRNFAKSMRRALLSHRDGAKVALGTRWTEQQYETAENMLAFLTQQGFSLENALYATDAVRVFTLGAVLLDQEGQVAKEERETPTTDSMPPLLRQAWELKVHQGAEPAFLFGLELIIAGLEKQLKRESGSHHHHHH : F. IND = fold induction (IND/REP) (B-galactosidase) is 9.8

Measured F. IND = fold induction (IND/REP) (B-galactosidase), CsL4.2-27 (protein, Sulfonylurea responsive repressor) MARLDKSKVINSALELLNEVGIEGLTTRKLAQKLGVEQPTLYWHVKNKRALLDALAIEMMDRHQTHYLPLEGESWQDFLRNFAKSMRCALLSHRDGAKVSLGTRWTEQQYETAENMLAFLTQQGFSLENALYATDAVRVFTLGAVLLDQEQQVAKEERETPTPDRMPPLLQQAWELKEHQGAEPAFLFGLELIIAGLEKQLKRDSGSHHHHHH : 9.1

Data point: CsL4.2-16 (protein, Sulfonylurea responsive repressor) MARLDKSKVINSALELLNEVGIEGLTTRKLAQKLGVEQPTLYWHVKNKRALLDALAIEMMDRHQTHYLPLEGESWQDYLRNFAKSMRCALLSHRDGAKVSLGTRWTEQQYETAENMLAFLTQQGFSLENALYATDAVRVFTLGAVLLDQEGQVANEERETPTPDRMPPLLRQAWELKVHQGAEPAFLFGLELIIAGLEKQLKRESGSHHHHHH ; F. IND = fold induction (IND/REP) (B-galactosidase) = 15.2

Kindly note the recorded F. IND = fold induction (IND/REP) (B-galactosidase) for CsL4.2-04 (protein, Sulfonylurea responsive repressor) MARLDKSKVINSALELLNEVGIEGLTTRKLAQKLGVEQPTLYWHVKNKRALLDALAIEMHDRHQTHYLPLEGESWQDFLRNFAKSMRCALLSHRDGAKVALGTRWTEQQYETAENMLAFLTQQGFSLENALYATDAVRVFTLGAVLLDQEQQVANEGRETPTTDSMPPLLRQAWELKEHQGAEPAFLFGLELIIAGLEKQLKRESGSHHHHHH , which is 10.2
